Target: Endothelin-1 receptor (Homo sapiens, UniProt P25101)
Sequence (P25101 whole entry): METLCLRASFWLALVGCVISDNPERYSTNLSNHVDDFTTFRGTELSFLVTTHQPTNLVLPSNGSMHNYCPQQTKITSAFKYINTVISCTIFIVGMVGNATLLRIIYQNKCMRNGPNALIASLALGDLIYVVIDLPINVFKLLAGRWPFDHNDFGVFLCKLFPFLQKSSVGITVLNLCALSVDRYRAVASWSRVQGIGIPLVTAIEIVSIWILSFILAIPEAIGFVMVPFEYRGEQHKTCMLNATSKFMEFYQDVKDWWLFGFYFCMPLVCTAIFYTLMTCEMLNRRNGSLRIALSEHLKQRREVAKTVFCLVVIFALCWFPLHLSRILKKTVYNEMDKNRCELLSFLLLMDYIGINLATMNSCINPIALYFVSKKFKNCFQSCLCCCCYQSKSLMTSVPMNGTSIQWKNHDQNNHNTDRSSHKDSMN
Test: Antagonist activity against human ET-1 by ELISA analysis
pIC50: −log10 of the molar value.

| Compound | pIC50 |
| --- | --- |
| COc1ccccc1Oc1c(NS(=O)(=O)c2ccc(C)cc2)nc(-c2ncccn2)nc1OCC1CCCN1C (stereo not drawn) | 8.45 |
| CC/C=C/CCOc1nc(-c2ncccn2)nc(NS(C)(=O)=O)c1Oc1ccccc1OC | 9.59 |
| COc1ccccc1Oc1c(NS(=O)(=O)c2ccc(C(C)(C)C)cc2)nc(-c2ncccn2)nc1OCC1CCCN1C (stereo not drawn) | 8.84 |
| COc1ccccc1Oc1c(NS(=O)(=O)c2ccccc2)nc(-c2ncccn2)nc1OCC1CCCC1 | 8.56 |
| COc1ccccc1Oc1c(NS(C)(=O)=O)nc(-c2ncccn2)nc1OCC1CCCN1C (stereo not drawn) | 8.63 |
| COc1ccccc1Oc1c(NS(=O)(=O)c2ccc(C)cc2)nc(-c2ncccn2)nc1OCC1CC1 | 8.92 |
| CC/C=C/CCOc1nc(-c2ncccn2)nc(NS(=O)(=O)c2ccccc2)c1Oc1ccccc1OC | 9.01 |
| COc1ccccc1Oc1c(NS(C)(=O)=O)nc(-c2ncccn2)nc1OCC1CCCC1 | 8.66 |
| CC/C=C/CCOc1nc(-c2ncccn2)nc(NS(=O)(=O)c2ccc(C)cc2)c1Oc1ccccc1OC | 8.41 |
| COc1ccccc1Oc1c(NS(=O)(=O)c2ccc(C)cc2)nc(-c2ncccn2)nc1OCC1CCC1 | 8.49 |
| COc1ccccc1Oc1c(NS(=O)(=O)c2ccc(C)cc2)nc(-c2ncccn2)nc1OCC(F)F | 8.32 |
| COc1ccccc1Oc1c(NS(=O)(=O)c2ccc(C(C)(C)C)cc2)nc(-c2ncccn2)nc1OCC1CC1 | 8.91 |
| COc1ccccc1Oc1c(NS(=O)(=O)c2ccc(C)cc2)nc(-c2ncccn2)nc1OCC1CCCCN1C (stereo not drawn) | 8.94 |
